molecular target: Angiotensin-converting enzyme (Oryctolagus cuniculus)
Sequence (P12822 whole entry): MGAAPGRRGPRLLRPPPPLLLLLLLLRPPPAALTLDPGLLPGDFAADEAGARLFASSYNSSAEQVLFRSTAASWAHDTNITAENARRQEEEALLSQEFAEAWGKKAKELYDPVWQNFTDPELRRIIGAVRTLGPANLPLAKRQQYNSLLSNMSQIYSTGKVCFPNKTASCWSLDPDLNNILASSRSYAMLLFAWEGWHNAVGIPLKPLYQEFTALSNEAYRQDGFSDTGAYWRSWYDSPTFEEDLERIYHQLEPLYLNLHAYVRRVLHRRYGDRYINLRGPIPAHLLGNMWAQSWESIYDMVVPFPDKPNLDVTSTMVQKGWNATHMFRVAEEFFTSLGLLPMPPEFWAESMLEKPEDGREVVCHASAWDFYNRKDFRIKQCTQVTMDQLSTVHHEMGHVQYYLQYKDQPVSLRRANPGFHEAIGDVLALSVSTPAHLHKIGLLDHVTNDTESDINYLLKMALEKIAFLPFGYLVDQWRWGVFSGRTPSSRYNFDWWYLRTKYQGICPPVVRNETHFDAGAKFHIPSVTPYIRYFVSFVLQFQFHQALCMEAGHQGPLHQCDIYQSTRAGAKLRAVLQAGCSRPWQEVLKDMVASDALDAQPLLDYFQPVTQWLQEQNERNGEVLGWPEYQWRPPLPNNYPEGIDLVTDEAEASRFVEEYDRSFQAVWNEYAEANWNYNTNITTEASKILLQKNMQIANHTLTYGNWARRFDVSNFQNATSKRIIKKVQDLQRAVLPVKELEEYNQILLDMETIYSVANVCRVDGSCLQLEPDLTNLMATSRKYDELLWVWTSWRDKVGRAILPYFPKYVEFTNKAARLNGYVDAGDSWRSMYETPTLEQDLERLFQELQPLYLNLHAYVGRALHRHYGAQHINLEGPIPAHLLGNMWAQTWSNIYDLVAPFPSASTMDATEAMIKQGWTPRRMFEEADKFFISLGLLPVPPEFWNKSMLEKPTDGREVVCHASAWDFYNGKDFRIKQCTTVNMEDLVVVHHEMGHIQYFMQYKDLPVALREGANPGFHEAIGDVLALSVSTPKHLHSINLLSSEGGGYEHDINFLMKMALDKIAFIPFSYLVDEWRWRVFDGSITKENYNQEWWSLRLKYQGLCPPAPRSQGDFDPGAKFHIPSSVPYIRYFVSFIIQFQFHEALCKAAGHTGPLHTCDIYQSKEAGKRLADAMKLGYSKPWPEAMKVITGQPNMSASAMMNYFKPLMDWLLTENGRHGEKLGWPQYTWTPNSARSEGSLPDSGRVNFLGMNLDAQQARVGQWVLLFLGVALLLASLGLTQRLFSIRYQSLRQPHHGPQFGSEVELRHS
endpointName: pIC50
Scale: negative log10 of molar concentration, which is what pIC50 denotes.

### Prompt Fill in: pIC50 on Angiotensin-converting enzyme (Oryctolagus cuniculus), entry `C[C@H](CS)C(=O)N1[C@H](C(=O)O)C[C@@H]2C[C@@H]21`
### Response 8.18
